- Tested on: SMN2-linked luciferase-reporter gene construct
- experiment.summary: SMN Splice Reporter Assay (SMN2-linked luciferase reporter)
- Type: cell-based
- experimental.setup: fold-increase of luciferase over baseline reading of transformed cells without any test compound
experimental.endpoint: Fold Increase
// keep it numeric: no unit symbol after the value

Cn1ccc2cc(N3Cc4ccc(-c5cncnc5)cc4C3=O)ccc21 | 1.169
COc1cccc2c1CN(c1ccc3sccc3c1)C2=O | 1.564
Cn1ccc2ccc(N3Cc4ccc(N5CCOCC5)cc4C3=O)cc21 | 1.652

Incoming: Fold Increase for COc1ccc2c(c1)C(=O)N(c1ccc3cc4n(c3c1)CCC4)C2 ?
Outgoing: 1.369

Incoming: Fold Increase for CC(=O)Nc1cccc2c1CN(c1ccc3c(ccn3C)c1)C2=O ?
Outgoing: 1.078

Incoming: Fold Increase for O=C1c2ccccc2CN1c1ccc2c(c1)OCCO2 ?
Outgoing: 1.348

Incoming: Fold Increase for COc1ccc2c(c1)C(=O)N(c1ccc3nc(OC)ccc3c1)C2 ?
Outgoing: 1.376

Incoming: Fold Increase for Cn1ccc2ccc(N3Cc4cc(N)ccc4C3=O)cc21 ?
Outgoing: 1.856

Incoming: Fold Increase for COc1ccc2c(c1)C(=O)N(c1ccc3nc(OC)ncc3c1)C2 ?
Outgoing: 1.32

###

pEC50: recorded values
- Test system: SMN2-linked luciferase-reporter gene construct
- experiment.summary: SMN Splice Reporter Assay (SMN2-linked luciferase reporter)
- Type: cell-based
- experimental.setup: cervical carcinoma cell lines, SMN2 splice luciferase reporter
Conceptually, pEC50 converts a concentration in mol/L into minus its log10.

COc1ccc2c(c1)C(=O)N(c1ccc3nc(OC)ncc3c1)C2 [Example 122432] | 5.94
CC(C)n1ccc2cc(N3Cc4ccc(N(C)C)cc4C3=O)ccc21 [Example 125271] | 7.66
COc1ccc2c(c1)C(=O)N(c1ccc3sc(C)c(C)c3c1)C2 [Example 123590] | 6.89

Incoming: pEC50 for COc1ccc2c(c1)C(=O)N(c1ccc3c(c1)NCCN3)C2 [Example 121921] ?
Outgoing: 6.66

Incoming: pEC50 for COc1ccc2c(c1)C(=O)N(c1ccc3ccc(C)nc3c1)C2 [Example 124430] ?
Outgoing: 7.34

Incoming: pEC50 for COc1ccc2c(c1)C(=O)N(c1cc3ccn(C)c3cn1)C2 [Example 121792] ?
Outgoing: 7.00

###

pEC50: recorded values
- Test system: SMN2-linked luciferase-reporter gene construct
- experiment.summary: SMN Splice Reporter Assay (SMN2-linked luciferase reporter)
- Format: cell-based
- experimental.setup: cervical carcinoma cell lines, SMN2 splice luciferase reporter
Conceptually, pEC50 converts a concentration in mol/L into minus its log10.

Cn1ccc2cc(N3Cc4cccc(N)c4C3=O)ccc21 | 6.53

Incoming: pEC50 for Cn1ccc2ccc(N3Cc4cc(Cl)ccc4C3=O)cc21 ?
Outgoing: 6.50

###

- Tested on: SMN2-linked luciferase-reporter gene construct
- experiment.summary: SMN Splice Reporter Assay (SMN2-linked luciferase reporter)
- Format: cell-based
- experimental.setup: fold-increase of luciferase over baseline reading of transformed cells without any test compound
Fold Increase: recorded values
// keep it numeric: no unit symbol after the value

COc1ccc2c(c1)C(=O)N(c1ccc3ccn(CCNC(C)=O)c3c1)C2 | 1.083

Incoming: Fold Increase for COc1ccc2c(c1)C(=O)N(c1ccc3c(c1)cc(C)n3C)C2 ?
Outgoing: 1.531

Incoming: Fold Increase for COc1cc2c(cc1OC)C(=O)N(c1ccc3c(c1)cc(C)n3C)C2 ?
Outgoing: 1.34

Incoming: Fold Increase for COc1ccc2c(c1)C(=O)N(c1ccc3sc(C)c(C)c3c1)C2 ?
Outgoing: 1.405

Incoming: Fold Increase for COc1ccc2c(c1)C(=O)N(c1ccc3c(ccn3C(C)=O)c1)C2 ?
Outgoing: 1.295

###

Structures can show the parent of a compound that is named as a salt.
melting point: recorded values

Please review the entries below; each comes with its answer.
COc1ccc2c(c1)C(=O)N(c1ccc3ccn(C)c3c1)C2 [Example 20] | 158 to 161 °C
COc1ccc2c(c1)C(=O)N(c1ccc3c(ccn3C(C)C)c1)C2 [Example 17] | 144 to 148 °C
Cn1ccc2cc(N3Cc4ccc(OC(F)(F)Br)cc4C3=O)ccc21 [Example 3] | 185 to 186 °C
COc1ccc2c(c1)C(=O)N(c1ccc3c(ccn3C)c1)C2 [Example 1] | 193 to 197 °C
Cn1ccc2cc(N3Cc4ccc(OC(F)F)cc4C3=O)ccc21 [Example 2] | 180 to 182 °C

Incoming: melting point for COc1ccc2c(c1)C(=O)N(c1ccc3c(c1)N(C)CCN3C)C2 [Example 38] ?
Outgoing: 137 to 142 °C

Incoming: melting point for CC(=O)Nc1cccc2c1CN(c1ccc3c(ccn3C)c1)C2=O [Example 10] ?
Outgoing: 239 to 243 °C

Incoming: melting point for COc1ccc2c(c1)CN(c1ccc3c(ccn3C)c1)C2 [Example 19] ?
Outgoing: 193 to 196 °C

Incoming: melting point for COc1ccc2c(c1)C(=O)N(c1ccc3ccn(CCN)c3c1)C2 (as salt: hydrochloride) [Example 23] ?
Outgoing: 280 to 282 °C (dec.)

Incoming: melting point for CN(C)c1ccc2c(c1)C(=O)N(c1ccc3c(c1)CCN3C)C2 [Example 31] ?
Outgoing: 268 to 270 °C

Incoming: melting point for COc1ccc2c(c1)C(=O)N(c1ccc3c(c1)NCCN3)C2 [Example 37] ?
Outgoing: 159 to 163 °C

Incoming: melting point for Cn1ccc2cc(N3Cc4c(N)cccc4C3=O)ccc21 [Example 9] ?
Outgoing: 198 to 203 °C

Incoming: melting point for CCOc1ccc2c(c1)C(=O)N(c1ccc3sccc3c1)C2 [Example 27] ?
Outgoing: 127 to 129 °C

Incoming: melting point for Cn1ccc2cc(N3Cc4ccc(OCC(F)(F)F)cc4C3=O)ccc21 [Example 7] ?
Outgoing: 182 to 188 °C

Incoming: melting point for CN(C)c1ccc2c(c1)C(=O)N(c1ccc3ccsc3c1)C2 [Example 30] ?
Outgoing: 195 to 197 °C

###

- System: SMN2-linked luciferase-reporter gene construct
- experiment.summary: SMN Splice Reporter Assay (SMN2-linked luciferase reporter)
- Assay type: cell-based
- experimental.setup: fold-increase of luciferase over baseline reading of transformed cells without any test compound
experimental.endpoint: Fold Increase
// keep it numeric: no unit symbol after the value

Please review the entries below; each comes with its answer.
Cn1ccc2ccc(N3Cc4cc(Br)ccc4C3=O)cc21 | 1.893
COc1ccc2c(c1)C(=O)N(c1ccc3ccc(O)nc3c1)C2 | 1.102
CCCCc1ccc2c(c1)C(=O)N(c1ccc3c(ccn3C)c1)C2 | 1.384
CC(C)Oc1ccc2c(c1)C(=O)N(c1ccc3cc[nH]c3c1)C2 | 1.134
Cn1ccc2ccc(N3Cc4cccc([N+](=O)[O-])c4C3=O)cc21 | 1.291
COc1ccc2c(c1)C(=O)N(c1ccc3[nH]ncc3c1)C2 | 1.059
Cn1ccc2ccc(N3Cc4ccc(O)cc4C3=O)cc21 | 1.893
COc1ccc2c(c1)C(=O)N(c1ccc3ncn(C)c3c1)C2 | 1.552
CC(C)n1ccc2cc(N3Cc4ccc(OC(F)F)cc4C3=O)ccc21 | 1.166
CC(=O)Nc1ccc2c(c1)C(=O)N(c1ccc3c(ccn3C)c1)C2 | 1.412

Incoming: Fold Increase for COc1ccc2c(c1)C(=O)N(c1cc3ccn(C)c3cn1)C2 ?
Outgoing: 1.384

Incoming: Fold Increase for Cn1ccc2ccc(N3Cc4ccc(N5CCCC5)cc4C3=O)cc21 ?
Outgoing: 1.681

Incoming: Fold Increase for COc1ccc2c(c1)C(=O)N(c1ccc(C)cn1)C2 ?
Outgoing: 1.308

Incoming: Fold Increase for Cn1ccc2ccc(N3Cc4ccc(N5CCCCC5)cc4C3=O)cc21 ?
Outgoing: 1.684

Incoming: Fold Increase for Cn1ccc2ccc(N3Cc4ccc(NC=O)cc4C3=O)cc21 ?
Outgoing: 1.638

Incoming: Fold Increase for Cn1ccc2ccc(N3Cc4ccc(-c5cccnc5)cc4C3=O)cc21 ?
Outgoing: 1.94

Incoming: Fold Increase for COc1ccc2c(c1)C(=O)N(c1ccc3nccc(C)c3c1)C2 ?
Outgoing: 1.541

Incoming: Fold Increase for O=C(O)C1CCc2cc(N3Cc4ccccc4C3=O)ccc21 (stereo not shown) ?
Outgoing: 1.24

Incoming: Fold Increase for O=C1c2cc(OC(F)F)ccc2CN1c1ccc2ncccc2c1 ?
Outgoing: 1.926

###

Fold Increase: recorded values
- Test system: SMN2-linked luciferase-reporter gene construct
- experiment.summary: SMN Splice Reporter Assay (SMN2-linked luciferase reporter)
- Type: cell-based
- experimental.setup: fold-increase of luciferase over baseline reading of transformed cells without any test compound
// keep it numeric: no unit symbol after the value

CCc1ccc2c(c1)C(=O)N(c1ccc3ccn(C)c3c1)C2 | 1.673
COc1ccc2c(c1)C(=O)N(c1ccc3c(c1)N(C)CCN3C)C2 | 1.354
Cn1ccc2cc(N3Cc4ccc(OC(F)F)cc4C3=O)ccc21 | 1.604

Incoming: Fold Increase for O=C1c2cc(N3CCCC3)ccc2CN1c1ccc2ncccc2c1 ?
Outgoing: 1.948

Incoming: Fold Increase for COc1ccc2c(c1)C(=O)N(c1ccc3scnc3c1)C2 ?
Outgoing: 1.353
